pKi values recorded for DOPr (Homo sapiens, UniProt P41143)
Answers are plain numbers, as −log10 of the molar value.

Check out these entries, answers already filled in.
molecule	pKi
COc1ccc(/C=C2\C[C@@]3(O)[C@H]4Cc5ccc(O)c6c5[C@@]3(CCN4C)[C@@H](O6)C2=O)cc1 [Compound 10]	7.43
CN1CC[C@]23c4c5ccc(O)c4O[C@H]2C(=O)/C(=C/c2ccc(F)cc2)C[C@@]3(O)[C@H]1C5 [Compound 7]	7.26
CN1CC[C@]23c4c5ccc(O)c4O[C@H]2C(=O)/C(=C/c2ccc4ccccc4c2)C[C@@]3(O)[C@H]1C5 [Compound 14]	7.44
CN1CC[C@]23c4c5ccc(O)c4O[C@H]2C(=O)/C(=C/c2ccc([N+](=O)[O-])cc2)C[C@@]3(O)[C@H]1C5 [Compound 12, Nitro-benzylideneoxymorphone]	8.00
CN1CC[C@]23c4c5ccc(O)c4O[C@H]2C(=O)/C(=C/c2ccc(Br)cc2)C[C@@]3(O)[C@H]1C5 [Compound 9]	6.92
CN1CC[C@]23c4c5ccc(O)c4O[C@H]2C(=O)/C(=C/c2ccc(Cl)cc2)C[C@@]3(O)[C@H]1C5 [Compound 8]	7.33
CN1CC[C@]23c4c5ccc(O)c4O[C@H]2C(=O)/C(=C/c2ccc(O)cc2)C[C@@]3(O)[C@H]1C5 [Compound 11]	7.43

Below: the item to evaluate.
pKi lookup needed for CN1CC[C@]23c4c5ccc(O)c4O[C@H]2C(=O)/C(=C/c2cccc4ccccc24)C[C@@]3(O)[C@H]1C5 [Compound 13] , thanks. 7.25
